Consider the following compounds; for each one, report its IC50.
Target: SUV39H2 (Homo sapiens (Human), UniProt Q9H5I1)
Sequence (Q9H5I1 whole entry): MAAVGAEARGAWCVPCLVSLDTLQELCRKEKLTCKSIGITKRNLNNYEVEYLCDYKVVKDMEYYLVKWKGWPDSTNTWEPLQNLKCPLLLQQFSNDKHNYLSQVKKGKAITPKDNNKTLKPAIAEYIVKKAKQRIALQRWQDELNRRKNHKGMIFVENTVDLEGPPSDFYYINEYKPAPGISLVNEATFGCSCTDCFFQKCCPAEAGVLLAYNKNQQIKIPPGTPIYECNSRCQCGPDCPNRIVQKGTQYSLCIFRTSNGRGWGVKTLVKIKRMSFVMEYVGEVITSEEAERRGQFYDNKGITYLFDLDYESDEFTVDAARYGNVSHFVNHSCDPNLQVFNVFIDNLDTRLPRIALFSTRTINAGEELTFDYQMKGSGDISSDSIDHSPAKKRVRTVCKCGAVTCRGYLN
Test: biochemical
Type: biochemical
Settings: 3H-SAM 100 nM, H3 Histone Peptide 350 nM, room temperature 3 hours
Method: Assay buffer (4 μL) was added into all the wells, including test compound and control wells (except for Sinefungin control wells), using the Multidrop Combi. The plate was centrifuged at 1000 rpm for 1 min. […] SUV39H2 (8 μL, final conc: optimized for each lot of the enzyme based on specific activity) was added by using the Multidrop Combi. […] The plate was loaded into the Trilux-Microbeta counter and a delayed read of 10 hours was made. The radioactive signal was measured at 1 min/well. […]
Answers are plain numbers, in nM.

>>> reading("COc1cc(OC)c(-c2cn3ccc(N4CCN(c5nccc(N6CCOCC6)n5)CC4)cc3n2)cc1Cl")
26.5
>>> reading("COc1cc(OC)c(-c2cn3ccc(N4CCN(c5ccnc(NC6CC6)n5)CC4)cc3n2)cc1Cl")
56.9

Items follow; give IC50 for each.
1. COc1cc(OC)c(-c2cn3ccc(N[C@H]4CC[C@@H](NCc5ccc(F)cc5)CC4)cc3n2)cc1Cl
2. COc1cc(OC)c(-c2cn3ccc(N4CCN(c5ncc(N6CCC(N)CC6)cn5)CC4)cc3n2)cc1Cl

Result:
20.3
4.99

###

Consider the following compounds; for each one, report its IC50.
Test system: CCD-18Co
Assay: Cell-based assay, anti-proliferative activity (Cell Counting Kit-8, 72 hours)
Conditions: Homo sapiens; CCD-18Co cells, Cell Counting Kit-8, 72 hours; read-out: IC50 (μM) CCD-18Co
Numbers only, in µM.

Below, each entry is followed by its recorded IC50 result.
>>> reading("CCCS(=O)(=O)N1CCN(c2ccn3cc(-c4cc(Cl)c(OC)cc4OC)nc3c2)CC1")
2.6
>>> reading("COc1cc(OC)c(-c2cn3ccc(N4CCC(NP(=O)(OC)OC)CC4)cc3n2)cc1Cl")
3.5
>>> reading("COc1cc(OC)c(-c2cn3cc(NCCN)c(OC)cc3n2)cc1Cl")
7.2
>>> reading("COc1cc(OC)c(-c2cn3ccc(C4CCNCC4)cc3n2)cc1Cl")
8.8

Items follow; give IC50 for each.
1. COc1cc(OCCCN(C)C)c(-c2cn3ccc(N4CCN(S(=O)(=O)C(C)C)CC4)cc3n2)cc1Cl
2. CCS(=O)(=O)NC1CCN(c2ccn3cc(-c4cc(Cl)c(OC)cc4OC)nc3c2)CC1
3. COC(=O)NCCNc1cn2cc(-c3cc(Cl)c(OC)cc3OC)nc2cc1OC
4. COc1cc(OC)c(-c2cn3ccc(N4CCN(C(C)C)CC4)cc3n2)cc1Cl
5. COc1cc(OCCCN(C)C)c(-c2cn3ccc(N4CCCN(C(=O)OC(C)(C)C)CC4)cc3n2)cc1Cl
6. COc1cc(OC)c(-c2cn3ccc(N4CCC(NS(C)(=O)=O)CC4)cc3n2)cc1Cl
7. COc1cc(OC)c(-c2cn3ccc(N4CCC(NC(=O)OC(C)(C)C)CC4)cc3n2)cc1Cl

Result:
2.9
0.99
4.7
5.8
1.4
1.1
1.9

###

Consider the following compounds; for each one, report its IC50.
Target: SUV39H2 (Homo sapiens (Human))
Assay: biochemical
Assay type: biochemical
Details: 3H-SAM 100 nM, H3 Histone Peptide 350 nM, room temperature 3 hours
Where a name gives a salt, the structure may show the parent alone.
Give bare numbers, in nM.

Below, each entry is followed by its recorded IC50 result.
>>> reading("COc1cc(OC)c(-c2cn3ccc(N4CCN(c5nccc(N)c5F)CC4)cc3n2)cc1Cl [Example 365, formate]")
29.7
>>> reading("COc1cc(OC)c(-c2cn3ccc(N[C@H]4C[C@H]5CC[C@@H](C4)N5C(=O)OC(C)C)cc3n2)cc1Cl")
79.3
>>> reading("COc1cc(OC)c(-c2cn3ccc(N4CCC[C@H](NCC5CCCCC5)C4)cc3n2)cc1Cl")
12.3

Here's the next entry for you.
Problem: Consider the compound shown here: CNC1CCN(c2nccc(N3CCN(c4ccn5cc(-c6cc(Cl)c(OC)cc6OC)nc5c4)CC3)n2)C1 (stereo not shown) [Example 372, trihydrochloride] What is its recorded IC50?
Result: 18.3
